compounds and their reported IC50
# System: CaCo-2
# procedure summary: Chemosensitivity test (modified MTT test EZ4U)
# condition info: Homo sapiens, Caco-2, 96 h, read-out: IC50-Werte

{"compound": "COc1cc(C2CC(=O)c3ccccc3O2)ccc1OCC=C(C)C (stereo not shown)", "measured on": "CaCo-2", "comparative sign": "=", "IC50 [mg/L]": 18}
{"compound": "O=C(/C=C/c1ccc(CO)o1)c1ccc(Cl)cc1", "measured on": "CaCo-2", "comparative sign": "=", "IC50 [mg/L]": 17.5}
{"compound": "O=C(/C=C/c1ccc(CO)o1)c1ccccc1O", "measured on": "CaCo-2", "comparative sign": ">", "IC50 [mg/L]": 200}
{"compound": "COc1cc(/C=C/C(=O)c2ccccc2O)ccc1O", "measured on": "CaCo-2", "comparative sign": "=", "IC50 [mg/L]": 12}
